Target: the molecule itself
Experiment: cross-linking; 10 mM bis(maleimido)hexane (BMH), 40 μM protein, 10 min at room temperature; cross-linked dimers seen by Coomassie-stained SDS-PAGE
// reported percent cross-linked dimers for each item listed
Please respond with the number in % and leave the unit unwritten.

Worked examples follow.
| protein | endpointLabel | measured |
| --- | --- | --- |
| UmuD S60A (natural protein, E. coli, UniProt P0AG11 1-139, looked up, UmuD, E. coli, full-length 139 residues, non-cleavable active-site variant S60A; also called full-length UmuD-S60A; active site variant UmuD S60A; source: purified; expression from pSG5 as previously described [33, 34]) MLFIKPADLREIVTFPLFSDLVQCGFPSPAADYVEQRIDLNQLLIQHPSATYFVKASGDAMIDGGISDGDLLIVDSAITASHGDIVIAAVDGEFTVKKLQLRPTVQLIPMNSAYSPITISSEDTLDVFGVVIHVVKAMR | percent cross-linked dimers | 31 |
| wild-type UmuD (natural protein, E. coli, UniProt P0AG11 1-139, looked up, UmuD, E. coli, full-length, 139 residues; also called WT UmuD; full-length UmuD; source: purified; expression from pSG5 as previously described [33, 34]) MLFIKPADLREIVTFPLFSDLVQCGFPSPAADYVEQRIDLNQLLIQHPSATYFVKASGDSMIDGGISDGDLLIVDSAITASHGDIVIAAVDGEFTVKKLQLRPTVQLIPMNSAYSPITISSEDTLDVFGVVIHVVKAMR | percent cross-linked dimers | 25 |
| UmuD 18 S60A (domain or fragment, E. coli, UniProt P0AG11 18-139, looked up, UmuD, E. coli, lacking the N-terminal 17 residues (Δ1–17) of the 139-residue full-length protein; non-cleavable active-site variant S60A; Plasmid pSG5 derivative; also called UmuD Δ1–17 S60A; source: constructed in pSG5, expressed and purified as previously described [33, 34]) FSDLVQCGFPSPAADYVEQRIDLNQLLIQHPSATYFVKASGDAMIDGGISDGDLLIVDSAITASHGDIVIAAVDGEFTVKKLQLRPTVQLIPMNSAYSPITISSEDTLDVFGVVIHVVKAMR | percent cross-linked dimers | 39 |
| UmuD 3A (natural protein, E. coli, UniProt P0AG11 1-139, looked up, UmuD, E. coli, full-length arms, three alanine mutations T14A L17A F18A; also called UmuD T14A L17A F18A; source: purified; not further stated) MLFIKPADLREIVAFPAASDLVQCGFPSPAADYVEQRIDLNQLLIQHPSATYFVKASGDSMIDGGISDGDLLIVDSAITASHGDIVIAAVDGEFTVKKLQLRPTVQLIPMNSAYSPITISSEDTLDVFGVVIHVVKAMR | percent cross-linked dimers | 41 |
| UmuD S60A C24A A7C (natural protein, E. coli, UniProt P0AG11 1-139, looked up, UmuD, E. coli, with the full-length arm; single cysteine moved from position 24 to position 7; S60A; also called UmuD A7C C24A S60A; source: purified; not further stated) MLFIKPCDLREIVTFPLFSDLVQAGFPSPAADYVEQRIDLNQLLIQHPSATYFVKASGDAMIDGGISDGDLLIVDSAITASHGDIVIAAVDGEFTVKKLQLRPTVQLIPMNSAYSPITISSEDTLDVFGVVIHVVKAMR | percent cross-linked dimers | 71 |

We next turn to a different protein, shown below.
Using the record for UmuD 8 S60A (domain or fragment, E. coli, UniProt P0AG11 8-139, looked up, UmuD, E. coli, lacking the N-terminal 7 residues (Δ1–7) of the 139-residue full-length protein; non-cleavable active-site variant S60A; Plasmid pSG5 derivative; also called UmuD Δ1–7 S60A; source: constructed in pSG5, expressed and purified as previously described [33, 34]) DLREIVTFPLFSDLVQCGFPSPAADYVEQRIDLNQLLIQHPSATYFVKASGDAMIDGGISDGDLLIVDSAITASHGDIVIAAVDGEFTVKKLQLRPTVQLIPMNSAYSPITISSEDTLDVFGVVIHVVKAMR , report its percent cross-linked dimers. 32
